Consider the following substances and their measured Concentration of aggregates 100–150 nm, 24 h readings.
System: amylin
Test: NTA of amylin aggregation, alone or with amylin derivatives
Assay type: biochemical, human
Conditions: NTA, 24 h, 37 °C, amylin 50 μmol L^−1 alone (A) or with 250 μmol L^−1 derivative, pH 7.4; duplicate; p < 0.05 less than A: n1, n2, m5; significantly more: m2
Marks after values point to notes of the source that are not given here.
measurementLabel: Concentration of aggregates 100–150 nm, 24 h

[[record]]
substance = "Amylin: chemically synthesized full-length human amylin, 37 amino acid long peptide (KCNTATCATQRLANFLVHSSNNFGAILSSTNVGSNTY; Islet amyloid polypeptide; UniProt P10997 34-70, looked up) [reference compound]"
datavalue = "2.9 ×10^7 aggregates/mL"

[[record]]
substance = "FLVHSS* [m3]"
datavalue = "5.9 ×10^7 aggregates/mL"

[[record]]
substance = "NFGAIL* [m4]"
datavalue = "4.1 ×10^7 aggregates/mL"

[[record]]
substance = "STNVGS [n5]"
datavalue = "2.4 ×10^7 aggregates/mL"

[[record]]
substance = "NFGAIL [n4]"
datavalue = "1.7 ×10^7 aggregates/mL"

[[record]]
substance = "STNVGS* [m5]"
datavalue = "1.6* ×10^7 aggregates/mL"

[[record]]
substance = "FLVHSS [n3]"
datavalue = "3.4 ×10^7 aggregates/mL"

